- target-or-test-system: hEag1 (Kv10.1) (Homo sapiens)
- Sequence (O95259 1-989): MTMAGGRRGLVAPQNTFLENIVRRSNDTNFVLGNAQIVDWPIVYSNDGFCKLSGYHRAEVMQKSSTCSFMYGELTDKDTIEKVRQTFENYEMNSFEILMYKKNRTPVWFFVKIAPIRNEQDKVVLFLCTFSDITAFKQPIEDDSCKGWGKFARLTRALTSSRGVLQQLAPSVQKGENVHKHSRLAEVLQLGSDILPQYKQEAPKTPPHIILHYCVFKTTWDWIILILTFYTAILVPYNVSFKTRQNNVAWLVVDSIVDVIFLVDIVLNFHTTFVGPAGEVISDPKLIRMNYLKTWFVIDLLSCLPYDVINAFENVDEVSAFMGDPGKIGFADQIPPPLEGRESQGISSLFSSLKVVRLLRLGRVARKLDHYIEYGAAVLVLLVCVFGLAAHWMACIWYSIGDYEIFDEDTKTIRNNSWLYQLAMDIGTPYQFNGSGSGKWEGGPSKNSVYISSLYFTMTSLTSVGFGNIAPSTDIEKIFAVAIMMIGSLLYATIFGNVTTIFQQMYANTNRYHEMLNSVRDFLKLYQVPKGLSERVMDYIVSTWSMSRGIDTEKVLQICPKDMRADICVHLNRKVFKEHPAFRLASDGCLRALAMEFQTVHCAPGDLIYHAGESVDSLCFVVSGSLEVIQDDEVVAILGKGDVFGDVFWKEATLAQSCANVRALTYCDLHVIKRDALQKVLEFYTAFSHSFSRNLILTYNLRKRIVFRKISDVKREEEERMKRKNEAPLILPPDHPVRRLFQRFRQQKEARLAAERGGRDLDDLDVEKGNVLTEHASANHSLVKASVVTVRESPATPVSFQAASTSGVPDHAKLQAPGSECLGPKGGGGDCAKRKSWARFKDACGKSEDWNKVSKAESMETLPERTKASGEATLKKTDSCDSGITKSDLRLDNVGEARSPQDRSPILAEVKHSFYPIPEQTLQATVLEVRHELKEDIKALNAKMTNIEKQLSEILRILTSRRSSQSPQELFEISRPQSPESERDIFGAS
- assay-comment: whole-cell patch clamp of the endogenous current in SaOS-2 cells, six-dose concentration-response
reported-property: IC50

Give a short answer stating reported IC50 for COc1ccc(CCN2CCC(Nc3nc4ccccc4n3Cc3ccc(F)cc3)CC2)cc1 [astemizole] . ~135 nM
